Test system: EGFR Del19/T790M/C797S (BaF3-DTC cells)
Experiment: EGFR degradation HTRF assay, BaF3-DTC cells
Format: cell-based
Conditions: 16h treatment, maximum percentage of degradation
Procedure: BaF3 WT(wild type), BaF3-LTC(L858R/T790M/C797S) and BaF3-DTC(Del19/T790M/C797S) cells are treated with compounds diluted in 0.2% DMSO cell culture medium and incubate for 16h, 37° C., 5% CO2, H1975-#36, H1975-#28, H1975-#23 and HCC827 cells are treated with compounds diluted in 0.2% DMSO cell culture medium on day 2, incubate for 16h, 37° C., 5% CO2.the final concentriation of compounds in all assay is start with 10 uM, 5-fold dilution, total 8 doses were included. […]
Consider the following molecules; for each one, report its DTC Dmax (%).
One number for each entry, in %.

Worked set:
- molecule: "CCc1cc(Nc2ncc(Br)c(Nc3ccc4nccnc4c3P(C)(C)=O)n2)c(OC)cc1N1CCC(N2CCN(C(=O)[C@H]3CCN(c4ccc5c(c4)CN(C4CCC(=O)NC4=O)C5=O)C3)CC2)CC1 (some centres unmarked)"
  meas_value: 89.2
- molecule: "CCc1cc(Nc2ncc(C(C)=O)c(Nc3ccc4nccnc4c3P(C)(C)=O)n2)c(OC)cc1N1CCC(N2CCN(CCC3CCN(c4cc(F)c(C5CCC(=O)NC5=O)c(F)c4)CC3)CC2)CC1 (centres unmarked)"
  meas_value: 93.35
- molecule: "CCc1cc(Nc2ncc(Cl)c(Nc3ccc4nccnc4c3P(C)(C)=O)n2)c(OC)cc1N1CCC(N2CCN(CCC3CCN(c4cc(F)c(C5CCC(=O)NC5=O)c(F)c4)CC3)CC2)CC1 (centres unmarked)"
  meas_value: 95.39
- molecule: "CCc1cc(Nc2ncc(Br)c(Nc3ccc4nc(C)ccc4c3P(C)(C)=O)n2)c(OC)cc1N1CCC(N2CCN(C(=O)C3CN(c4ccc5c(c4)C(C)(C)C(=O)N5C4CCC(=O)NC4=O)C3)CC2)CC1 (centres unmarked)"
  meas_value: 95.3

Kindly consider the entry below.
Name the recorded DTC Dmax (%) of the molecule listed here: CCc1cc(Nc2ncc(Br)c(Nc3ccc4c(=O)n(C)ccc4c3P(C)(C)=O)n2)c(OC)cc1N1CCC(N2CCN(CCc3cc(F)c(C4CCC(=O)NC4=O)c(F)c3)CC2)CC1 (centres unmarked) 94.9

====

Target: EGFR (HCC827 cells) (Homo sapiens, UniProt P00533, DEL746-750)
Construct: endogenous in cells; host or cells: HCC827
Sequence (P00533 with tags, fused parts or gaps DEL746-750): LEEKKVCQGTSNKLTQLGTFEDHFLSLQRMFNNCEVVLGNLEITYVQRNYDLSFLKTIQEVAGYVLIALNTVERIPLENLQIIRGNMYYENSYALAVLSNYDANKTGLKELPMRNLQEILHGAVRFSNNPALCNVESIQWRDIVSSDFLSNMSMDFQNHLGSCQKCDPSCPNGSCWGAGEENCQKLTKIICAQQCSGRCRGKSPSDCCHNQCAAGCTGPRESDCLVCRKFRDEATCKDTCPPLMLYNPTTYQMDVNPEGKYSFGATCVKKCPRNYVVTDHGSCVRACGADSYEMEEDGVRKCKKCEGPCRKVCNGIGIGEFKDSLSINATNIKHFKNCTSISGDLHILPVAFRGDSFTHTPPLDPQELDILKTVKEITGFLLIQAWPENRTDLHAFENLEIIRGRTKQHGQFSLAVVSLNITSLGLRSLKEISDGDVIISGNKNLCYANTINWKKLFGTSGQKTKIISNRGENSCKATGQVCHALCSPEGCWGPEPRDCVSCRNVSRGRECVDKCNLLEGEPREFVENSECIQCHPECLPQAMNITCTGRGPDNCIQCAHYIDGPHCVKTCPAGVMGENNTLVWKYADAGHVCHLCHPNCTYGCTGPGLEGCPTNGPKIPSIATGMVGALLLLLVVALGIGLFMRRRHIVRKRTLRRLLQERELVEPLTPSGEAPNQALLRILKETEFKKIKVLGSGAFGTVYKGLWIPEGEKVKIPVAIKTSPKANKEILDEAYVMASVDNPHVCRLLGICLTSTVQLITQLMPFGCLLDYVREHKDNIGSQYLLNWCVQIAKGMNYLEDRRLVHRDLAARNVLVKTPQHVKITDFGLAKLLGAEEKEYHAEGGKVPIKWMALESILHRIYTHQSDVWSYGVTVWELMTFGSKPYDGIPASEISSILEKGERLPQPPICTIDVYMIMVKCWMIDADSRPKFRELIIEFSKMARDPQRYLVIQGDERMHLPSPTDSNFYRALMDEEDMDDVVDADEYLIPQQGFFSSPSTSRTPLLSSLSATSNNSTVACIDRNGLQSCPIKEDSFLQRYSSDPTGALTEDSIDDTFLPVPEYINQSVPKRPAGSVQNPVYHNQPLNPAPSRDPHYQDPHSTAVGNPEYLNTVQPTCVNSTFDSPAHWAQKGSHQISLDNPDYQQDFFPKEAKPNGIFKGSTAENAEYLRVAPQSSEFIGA
Experiment: EGFR degradation HTRF assay, HCC827 cells
Assay type: cell-based
Conditions: HCC827, 16h treatment
assay_readout: DC50 (nM)
Give bare numbers, in nM.

- molecule: "COc1cc(N2CCN(CCC3CCN(c4ccc(C5CCC(=O)NC5=O)cc4)CC3)CC2)c(C)cc1Nc1ncc(Br)c(Nc2ccc3nccnc3c2P(C)(C)=O)n1 (centres unmarked) [Example 90]"
  DC50 [nM]: 12.8
- molecule: "COc1cc(N2CCN(CCc3ccc(C4CCC(=O)NC4=O)cn3)CC2)c(C)cc1Nc1ncc(Br)c(Nc2ccc3nccnc3c2P(C)(C)=O)n1 (centres unmarked) [Example 87]"
  DC50 [nM]: 57.5
- molecule: "COc1cc(N2CCC(N3CCN(CCCOc4ccc(NC5CCC(=O)NC5=O)cc4)CC3)CC2)ccc1Nc1ncc(Cl)c(Nc2ccccc2NS(C)(=O)=O)n1 (centres unmarked) [Example 143]"
  DC50 [nM]: 12.1
- molecule: "CCc1cc(Nc2ncc(Br)c(Nc3ccc4nccnc4c3P(C)(C)=O)n2)c(OC)cc1N1CCC(N2CCN(CCc3ccc(C4CCC(=O)NC4=O)cc3)CC2)CC1 (centres unmarked) [Example 1]"
  DC50 [nM]: 3.6

Query molecule follows.
Tell me measured DC50 for CCc1cc(Nc2ncc(Br)c(Nc3ccc4nccnc4c3P(C)(C)=O)n2)c(OC)cc1N1CCC(N2CCN(C(=O)C3CCN(c4ccc5c(c4)C(=O)N(C4CCC(=O)NC4=O)C5=O)CC3)CC2)CC1 (centres unmarked) [Example 67] please. 6.2
